tested on: MS2 coat protein; test: apparent KD of MS2 coat protein; higher = weaker reporter binding; conditions: Eterna round: R107; input ligand: theophylline 2 mM
Class boundaries, taken from values of apparent KD of MS2 coat protein, are as follows: low band (below 0.02 µM), middle band (0.02 µM to below 0.07 µM), high band (0.07 µM or more)

Chain	Label
AAUUAUCAGUCGGCCGCCACUGACACAUGAGGAUCACCCAUGUAACUUGGGAUAAAUUUAAUAAACAGGACCGGGACAAAGGCUA [JR_ExcTryptoB_Sub011]	middle band
UGUAACAUGAGGAUCACCCAUGUGAGUGAUACCAGACUAGUGUUAGUCCCUUGGCAGCACGCUGGGCGAGUGUGUAGUCUAUGCG [Same State - Theophylline A (Freestyle 16)]	high band
CGCAACCCACAUGAGGAUCACCCAUGUGAAGGAGCGCCGAAUAAGGCAGGUAGGUCGCGCAUGAAUAAAUCAUGUAGGAAGCGAA [XArg-A 6 V1&2]	middle band
ACAUGAGGAUCACCCAUGUAUUCAUCAGAAGGAGCGUGGAAUAACACAGGUAGGUCGCUGAUUAUUUGUUAAAUAAAAUCGUGUA [JR_Nu_SSArginiA_Sub022]	low band

Consider the additional sequence presented here.
Q) Tag the class for UUCGCUGAGGGAAGGAGCGUGAAGACAUGAGGAUCACCCAUGUAGAGGCGCCGAAGGCGUUCGCAGGUAGGUCGCCCUCAGUGAG [#1 Same State - Arginine B Attempt #23 (HarryS)]
A) low band

====

system: K4 kissing-loop RNA reporter; experiment: apparent KD of K4 kissing-loop reporter; higher = weaker reporter binding; conditions: Eterna round: R107; input ligand: theophylline 20 uM
Respond with 1 for apparent KD of K4 kissing-loop reporter values of 300 nM and above, -1 for values below.

Q) Decide: apparent KD of K4 kissing-loop reporter of AGGUCCGAGCCCGGAAGGGCUCGGACCUGUUAGGAUAUGACGUUAUUCAGAAGGGAUGGGUGGAGUGAUGUUCCACCCGAGAGGG [#2 Same State - FMN A Attempt #17 (HarryS)] >= 300 nM?
A) -1

Q) Decide: apparent KD of K4 kissing-loop reporter of AAGAAGGUCAAAGACCUUCGUGCACCUGAUACCAGUCGCGAAAGCGACCCUUGGCAGCAGGGCAGUGAUGUUGCCAAGUGCACAA [Omei KL Theo A SS A v1] >= 300 nM?
A) 1

Q) Decide: apparent KD of K4 kissing-loop reporter of AGGAUGUAGUGAUGUUAUAUAAGAAGUAGACGAGGACCGGUACGGCCGCCACUCGAAACGGCUACUAGCGCGUUGCGAGGUGUGC [ExTryptoA.Cg] >= 300 nM?
A) 1

Q) Decide: apparent KD of K4 kissing-loop reporter of GCAGGACGAGGAGGAGGAUGAAUUACUGAAGGAGCGCAUAUUUUUGCAGGUAGGUCGCGGUAAAGAAGUAUAGUGAUGUUAUAUA [SSArgA.L] >= 300 nM?
A) 1

Q) Decide: apparent KD of K4 kissing-loop reporter of CCCAAAAUAUGCAGUGAUGUUGCAACCGAUACCAGUAUCGAAAGAUACCCUUGGCAGCGGAAAACCGCUACGUAAUUUAAAAGGG [Ex Theophylline A K4 17] >= 300 nM?
A) 1

Q) Decide: apparent KD of K4 kissing-loop reporter of GGUGACGGCCAGGAGUGAUGUAUAGAAUAGCGAGGACCGGUACGGCCGCCACUCGUGAAGAAAAGGGAGUGAUGUUCCGUAAUGU [Kazoo] >= 300 nM?
A) -1

====

system: K4 kissing-loop RNA reporter; assay: apparent KD of K4 kissing-loop reporter; higher = weaker reporter binding; details: Eterna round: R107; input ligand: arginine 13.2 mM;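 also: bound reporter read as fluorescence of individual clusters on recovered sequencing chips by microscopy, with normalized cluster intensities fitted with a binding model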
Assay Readout: apparent KD of K4 kissing-loop reporter (µM)
Numbers only, in µM.

List the reported apparent KD of K4 kissing-loop reporter of each sequence below.
1. UGCAGUGAUGUUGCUAUUUGUCUUGAUUAACGAGGACCGGUACGGCCGCCACUCGAUUUCUCUCUAAUCGAGUAUGUUGUUUAGU [#19 K4 Tryptophan A Exclusion]
2. AGGGUUUAGGACGAUACCAGCCUGGAGGCCAGUGAUGUUGGCCGAUUUGAACAGAAUUAAGGCCCUUGGCAGCGUAUCUAAAACC [Esamaza]
3. AAGGUCACUACUACAGUGAUGUUGUAGGAGCAGGAUAUGCAGAAAUGCAGAAGGGCUCGCUCCAGGUGACCGAAUGAAACAUUCA [Omei KL FMN A SS A v3]

A)
[0.184, 0.291, 0.504]

====

tested on: MS2 coat protein; assay: apparent KD of MS2 coat protein; designed switch direction (-1 OFF switch, 1 ON switch): -1; higher = weaker reporter binding; conditions: input ligand: FMN 200 uM
Can you tell me apparent KD of MS2 coat protein for the items I'm about to list?
Answers are plain numbers, in nM.

Chain	apparent KD of MS2 coat protein, nM
GAUACACAUGAGGAUCACCCAUGUGAGGAUAUGGAGGAGUUGCGAGUAAGCGAUGGAUCCAGAAGGCGCGUGAG [JR_Ex1_Sub082] (Eterna round: R97, puzzle: Exclusion 1)	73.2
GUUCUGACAGGAUAUACAUGAGGAUCACCCAUGUGCCCUUAGAGAUGCAAAGCAUCUCGUAGAAGGGUCUGAAC [Omei Ex3 Model Bachelor's Dilema v28] (Eterna round: R97, puzzle: Exclusion 3)	38.5
CGGUCGUCGUGAGGAUAUACAUGAGGAUCACCCAUGUUUCUCGGGUCGGUCGUCCGGUCGGUGGUGUAGAAGGCGCGGUGGCUG [random 3, A 14%] (Eterna round: R96, puzzle: Exclusion NG 2)	125

List the reported apparent KD of MS2 coat protein of each sequence below.
1. GUCAGCUCGUGAGGAUAUAUAUACAUGAGGAUCACCCAUGUAAGAUCAGGCUUCGGCCAAUGUAUAUAGAAGGCACGAGCUGAU [ENG2/11-A2] (Eterna round: R96, puzzle: Exclusion NG 2)
2. UUUUGGCAGGCUAUUAUUAACAUGAGGAUCACCCAUGUGCAUCCAAAAUUACUUUUAGAUCUUGCUCGUCUUAUAUA [JR_STOV1_Sub086] (Eterna round: R97, puzzle: Sensor, turn-off variant 1)
3. AUCAGCUCGUGAGGAUAUACAUCACUGCUUCGGCAGUGUAUUAAGAUCACAUGAGGAUCACCCAUGUAGAAGGUACGAGCUGAU [ENG2/2-C3] (Eterna round: R96, puzzle: Exclusion NG 2)
4. UUGAAACAUACCUCCAUAAACAUGAGGAUCACCCAUGUAAGUGAGGAUAUAGAUUGAUUAGUAUACUAGAAGGCACUUAGAUAU [JR_ExcNG3_Sub043] (Eterna round: R96, puzzle: Exclusion NG 3)
5. UGGUCACAUGAGGAUCACCCAUGUCAGGAUAUCUACAUUGAAGCUGCGGCUUCAAUGUAGAGAAGGGACAUAAU [E1/7-B3] (Eterna round: R97, puzzle: Exclusion 1)

A)
1. 847
2. 379
3. 215
4. 10.4
5. 314

# apparent KD of MS2 coat protein of CUGAAGGUGCAGGAUAUCCUGAAUAAGGGUUCAGGAGAAGGGCACACAUGAGGAUCACCCAUGUUAAUACUGCU [Eternabot (L2) Solution 54] (Eterna round: R97, puzzle: Exclusion 6) = 29.5

====

system: MS2 coat protein; assay: apparent KD of MS2 coat protein; designed switch direction (-1 OFF switch, 1 ON switch): 1; higher = weaker reporter binding; details: input ligand: microRNA oligo, concentration not stated
Assay Readout: apparent KD of MS2 coat protein
Quote the value and follow it with the unit of measurement.

The following sequences have reported results that may help.
Chain	Experimental Result
UGCUACGGAGACAUGAGGAUCACCCAUGUCGCUGCUUAAGGGCAGGAUAUGAAAGGGAAUCCCAAUCAGAAGGGCCGCAGCCAC [Isanxeanor] (Eterna round: R96, puzzle: Same State NG 3)	22.8 nM
AGGCUCAGACGAGGAUAUACGUGGUCACAUGAGGAUCACCCAUGUCUCGAGCUUCGGCUCGAGGCGUAGAAGGUGUCUGAGCCA [SSNG2/6-C1] (Eterna round: R96, puzzle: Same State NG 2)	406 nM
AGGCUCAGACGAGGAUAUAUGUCUCGAGCUUCGGCUCGAGACAUGAGGAUCACCCAUGUAAUAACAUAGAAGGUGUCUGAGCCA [SSNG2/1-C1] (Eterna round: R96, puzzle: Same State NG 2)	208 nM
GAGUGGUUGGGAGGAUAUGCAUUGUUAUUAAAUGCAGAAGGUUUUAACAUGAGGAUCACCCAUGUAGGACUAUUCCUGUGUAUC [Parity 69 - Jieux - Same State NG 1] (Eterna round: R96, puzzle: Same State NG 1)	12.1 nM
GGCCUGAGUCAAGGAUAUGCUACCGUUUCGGUAGCAGAAGGUGAUCACAUGAGGAUCACCCAUGUUUACGGGAAGACCCGCGCC (Eterna round: R96, puzzle: Same State NG 1)	141 nM

List the reported apparent KD of MS2 coat protein of each sequence below.
1. AGGCUCAGACUAGGAUAUAUGCGAUCACAUGAGGAUCACCCAUGUCUCGAGCUUCGGCUCGAGGCAUAGAAGGAGUCUGAGCCA [SSNG2/4-D1] (Eterna round: R96, puzzle: Same State NG 2)
2. UGGCUGGUGCUAGGAUAUGCAUGAGGCCUCCUCGUAGAAGGAGCACGACAUGAGGAUCACCCAUGUAGCCGUCCGUAGACGGCU [salish99_SSNG1_r04_011] (Eterna round: R96, puzzle: Same State NG 1)
3. CCGAUUUAUGGAGGAUAUGGAGCCUUAUUGGCUCCAGAAGGUCAAUACAUGAGGAUCACCCAUGUGUCGGCGGUCAAUAGACCG [Eli NG1ss - 72] (Eterna round: R96, puzzle: Same State NG 1)
4. UUACCGCGGGUAGGAUAUGGUCACACUUCUAAAACAUGAGGAUCACCCAUGUCCGACACAUAAAGCCAGAAGGACCCGCGGCUC [Esbea] (Eterna round: R96, puzzle: Same State NG 2)

A)
30.8 nM
50.1 nM
44.2 nM
48.5 nM
